Target: AMP-activated protein kinase, AMPK (Homo sapiens) (UniProt P54646+O43741+P54619+Q9UGJ0+Q9Y478+Q13131+Q9UGI9)
Assay: AMP-dependent Kinase enzyme assay. An in vitro enzyme assay that detects ADP turnover that is directly proportional to AMPK activity. This uses naive AMPK that is activated during the assay with MK-8722
Assay type: functional
Set-up: scale not given: direction of the effect not stated beside the values
Conditions: 30 µM
Recorded Percent Effect by entry
Measured Quantity: Percent Effect (%)

• COc1cc(N2C[C@@H]3COC[C@]3(COc3cccnc3)C2)ncn1 = 3.02
• CCn1cc(NC(=O)C2CCN(CC(=O)N3CCOCC3)CC2)cn1 = -3.09
• COc1ccc(CNC(=O)Nc2cccnc2N2CCCC2)cc1O = -3.7
• CN(C)C(=O)C1(CCCc2ccncc2)CCCN1 (stereo not drawn) = -1.94
• CC(=O)N1CCC2(CC1)COCCN2Cc1ccc(F)cc1 = 4.11
• COC(=O)CCc1c(C)nn(-c2nc(C)cc(=O)[nH]2)c1C = 14.8
• Cc1csc(N2CCN(C(=O)CCC(=O)c3ccc(C)s3)CC2)n1 = -7.25
• CC(C)c1nc(C2CCCN2Cc2ccno2)no1 (stereo not drawn) = -0.797
• O=C(c1cccs1)N1CCC2(C1)c1ccccc1S(=O)(=O)N2CC1CC1 (stereo not drawn) = 12.3
• CN(Cc1cccc(F)c1)C1CCN(CCc2ccccn2)CC1 = -5.03
• Cc1ccc(N2CCCC(NCc3ccsc3)C2)nn1 (stereo not drawn) = -7.55
• COC(C(=O)N1CCN(c2cccc(Cl)c2)C(=O)C1)c1ccccc1 (stereo not drawn) = 0.72
• Cc1cc(C)cc(C2(C(=O)N3CCCC(n4cncn4)C3)CC2)c1 (stereo not drawn) = 3.34
• CNC(=O)c1cccc(C2CNCCN2C)c1 (stereo not drawn) = 4.3
• COc1ccc(-c2noc(CN3CCc4cncnc4C3)n2)cc1 = -14.9
• CN(Cc1nccs1)c1nc(-c2ccccn2)nc2c1CCNCC2 = -0.513
• CCC(CC)c1cc(C(=O)N2CCCC(n3cncn3)C2)on1 (stereo not drawn) = -4.63
• O=C(Cc1cccs1)NC1CCN(c2cccc(F)c2)CC1 = 6.31
• Cc1nc(C)n(CC2CCCN2CCc2cccs2)n1 (stereo not drawn) = 3.79
• Cc1nn(C(C)C)c(C)c1NC(=O)c1ccncc1 = -7.09
• Cn1nc(C2CCCN(C(=O)CO)C2)cc1O (stereo not drawn) = -113
• CCOC(C)c1nc(CN2CCNCC2)cs1 (stereo not drawn) = -1.11
• CNS(=O)(=O)c1cccc(CNc2ccc(C(F)(F)F)nn2)c1 = -4.31
• O=C(O)c1ccc(F)c(S(=O)(=O)Nc2ccc(-n3cccn3)c(Cl)c2)c1 = -7.61
• COC(=O)c1ccc(N2CCN(C(=O)c3cc(C)on3)C(C)C2)cc1 (stereo not drawn) = 13.9
• O=C(N[C@@H]1CN(Cc2ccsc2)[C@@H]2CCCO[C@@H]21)C1CC1 = -4.7
• CCn1ncc2c1CCCC2NCc1ccc(OC)c(C)c1 (stereo not drawn) = -10.6
• Cc1ccc(-c2cc(N)c(=O)n(CC(=O)NC3CCCCC3)n2)s1 = 14.2
• CN(C)C(=O)N1CCOCC2(CCN(c3ccccn3)C2)C1 (stereo not drawn) = -1.14
• COc1ccc(C(=O)N2CCCC(CNS(C)(=O)=O)C2)cc1F (stereo not drawn) = -5.72
• Cc1ccc(C(=O)N(C)Cc2cc(Br)cs2)c(=O)[nH]1 = 5.18
• COc1cc(C)c(C(C)NC(=O)Nc2nnc(C)s2)cc1OC (stereo not drawn) = -4.62
• CCn1cc2c(n1)CN(Cc1nccs1)CC2COCC1CC1 (stereo not drawn) = 8.82
• Cc1nn(C)c(C)c1C1CCCN1CC(=O)Nc1ccncc1 (stereo not drawn) = -12
• COc1ccc(C(=O)N2C[C@@H](C(=O)O)[C@H](c3ccccc3C)C2)c(O)c1 = -4.36
• Cc1nc2cc(C3CCN(Cc4cccc(F)c4F)C3)nn2c(O)c1C (stereo not drawn) = 12.9
• O=C(NCCOc1ccc(F)c(F)c1)NCc1ccncc1 = 0.439
• CCN(C(=O)COC)C(c1cccnc1)c1ccc2c(c1)CCO2 (stereo not drawn) = 0.259
• CC(C)c1noc(C(C)N2CCN(Cc3ccccc3C#N)CC2)n1 (stereo not drawn) = -8.38
• CN(CCc1ccccc1)Cc1cc(C(=O)N2CCCC2(C)C)no1 = -8.24
• Cc1ccc(-c2csc(N)c2C#N)cc1 = -1.04
• COCC(=O)N1CCCn2c(CN3CCCCC3)nnc2C1 = 1.87
• COc1cccc(-c2nc(C)c(C(=O)N[C@@H](C)C(=O)O)s2)c1 = -0.167
• O=C(CCNC(=O)c1ccccc1N1CCOCC1)NC1CCCC1 = -6.31
• Cc1cc(C)cc(-c2ccc(CC3(C(=O)O)CCOCC3)cc2)c1 = 12.1
• Cc1cnn(CC2CN(c3cnc4ccccc4n3)CCO2)c1 (stereo not drawn) = 2.77
• NC(=O)COc1ccc(CNCc2ccc(F)cc2F)cc1 = -4.07
• O=C(CCc1cc2n(n1)CCCN(C(=O)c1cccnc1)C2)NC1CC1 = -1.68
